Molecular target: human cloned dopamine D4.2 receptors (Homo sapiens, UniProt P21917, DEL265-296)
Sequence (P21917 with tags, fused parts or gaps DEL265-296): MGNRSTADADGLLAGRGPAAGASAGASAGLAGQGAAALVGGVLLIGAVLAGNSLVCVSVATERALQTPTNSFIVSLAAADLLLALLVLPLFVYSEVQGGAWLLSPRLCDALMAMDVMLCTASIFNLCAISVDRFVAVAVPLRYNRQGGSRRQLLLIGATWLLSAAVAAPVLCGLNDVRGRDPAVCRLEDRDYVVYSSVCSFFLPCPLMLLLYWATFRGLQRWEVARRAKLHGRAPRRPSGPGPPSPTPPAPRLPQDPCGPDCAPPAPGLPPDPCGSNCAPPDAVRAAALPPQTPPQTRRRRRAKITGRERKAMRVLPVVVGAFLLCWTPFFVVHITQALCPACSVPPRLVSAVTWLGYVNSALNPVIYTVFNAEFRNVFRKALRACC
Test: Inhibition of the binding of 3H-YM-09151-2 to human dopamine D4 receptors
Conditions: human cloned dopamine D4.2 receptors in CHO-cells
Experimental: The compounds of the invention have also been tested for their affinity to dopamine D4 receptors in the following test. Inhibition of the Binding of ^3H-YM-09151-2 to Human Dopamine D4 Receptors By this method the inhibition by drugs of the binding of [^3H]YM-09151-2 (0.06 nM) to membranes of human cloned dopamine D4.2 receptors expressed in CHO-cells is determined in vitro. Method modified from NEN Life Science Products, Inc., technical data certificate PC2533-10/96.
pIC50: −log10 of the molar value.
Measured pIC50 of individual entries
assayReadout: pIC50

| smilesNotation | assayReadout | value |
| --- | --- | --- |
| c1ccc(SCCCN2CCN(c3cccc4c3OCCO4)CC2)cc1 | pIC50 | 8.89 |
| CC1(C)Cc2cc(Cl)cc(N3CCN(CCCOc4c(Cl)cc(S(C)(=O)=O)cc4Cl)CC3)c2O1 | pIC50 | 7.12 |
| CC1(C)COc2c(N3CCN(CCCOc4c(Cl)cc(S(C)(=O)=O)cc4Cl)CC3)cc(Cl)cc21 | pIC50 | 7.06 |
| Clc1cccc(Cl)c1SCCCN1CCN(c2cccc3c2OCCO3)CC1 | pIC50 | 8.72 |
| Cc1cccc(Cl)c1SCCCCN1CCN(c2cc(Cl)cc3c2OC(C)(C)C3)CC1 | pIC50 | 7.64 |
| Fc1cc(Cl)c(OCCCCN2CCN(c3cccc4c3OCCO4)CC2)c(Cl)c1 | pIC50 | 8.21 |
| Clc1cccc(Cl)c1OCCCN1CCN(c2cccc3c2OCCO3)CC1 | pIC50 | 8.23 |
| Fc1ccccc1OCCCN1CCN(c2cccc3c2OCCO3)CC1 | pIC50 | 8.92 |
| CC1(C)Cc2cc(Cl)cc(N3CCN(CCCCOc4ccc(F)cc4Cl)CC3)c2O1 | pIC50 | 8.19 |
| Clc1cccc(Cl)c1SCCCCN1CCN(c2cccc3c2OCCO3)CC1 | pIC50 | 8.68 |
| Fc1ccc(OCCCN2CCN(c3cccc4ccsc34)CC2)c(F)c1 | pIC50 | 8.70 |
| Brc1cc(Br)c(OCCCN2CCN(c3cccc4c3OCCO4)CC2)c(Br)c1 | pIC50 | 8.62 |
| Fc1cc(F)c(OCCCN2CCN(c3cccc4c3OCCO4)CC2)c(F)c1 | pIC50 | 7.89 |
| Cc1cc(F)ccc1OCCCN1CCN(c2ccc(C#N)c3c2OCCO3)CC1 | pIC50 | 8.16 |
| COc1cc(F)ccc1OCCCN1CCN(c2cccc3c2OCCO3)CC1 | pIC50 | 8.52 |
| Fc1ccc(OCCCCN2CCN(c3cccc4c3OCCO4)CC2)c(Br)c1 | pIC50 | 8.92 |
| Clc1cccc(Cl)c1SCCN1CCN(c2cccc3c2OCCO3)CC1 | pIC50 | 7.96 |

----------
Target: human cloned dopamine D4.2 receptors (Homo sapiens, UniProt P21917, DEL265-296)
Sequence (P21917 with tags, fused parts or gaps DEL265-296): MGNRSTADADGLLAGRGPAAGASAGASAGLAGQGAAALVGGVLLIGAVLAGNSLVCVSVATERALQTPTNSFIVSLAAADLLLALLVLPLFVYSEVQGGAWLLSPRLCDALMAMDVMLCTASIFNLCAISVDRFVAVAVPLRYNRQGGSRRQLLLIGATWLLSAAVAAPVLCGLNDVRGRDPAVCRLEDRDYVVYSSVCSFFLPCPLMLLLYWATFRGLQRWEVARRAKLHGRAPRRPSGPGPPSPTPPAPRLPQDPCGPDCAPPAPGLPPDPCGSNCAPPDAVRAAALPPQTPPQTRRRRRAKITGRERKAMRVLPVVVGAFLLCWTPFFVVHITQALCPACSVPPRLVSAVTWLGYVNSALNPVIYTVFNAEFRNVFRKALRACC
Test: Inhibition of the binding of 3H-YM-09151-2 to human dopamine D4 receptors
Conditions: human cloned dopamine D4.2 receptors in CHO-cells
Measured IC50 of individual entries

| molecule | IC50 |
| --- | --- |
| Clc1ccccc1OCCCN1CCN(c2cccc3c2OCCO3)CC1 | 1.1 nM |
| Fc1cc(Br)cc(F)c1OCCCN1CCN(c2cccc3ccsc23)CC1 | 59 nM |
| Clc1ccc(OCCCN2CCN(c3cccc4c3OCCO4)CC2)cc1 | 4 nM |
| N#Cc1ccccc1OCCCN1CCN(c2cccc3c2OCCO3)CC1 | 1.7 nM |
| COc1c(Cl)cccc1SCCCCN1CCN(c2cccc3c2OCCO3)CC1 | 3.1 nM |
| CC1(C)COc2c(N3CCN(CCCOc4c(Cl)cc(F)cc4Cl)CC3)cc(Cl)cc21 | 26 nM |
| Cc1cccc(Cl)c1SCCCCN1CCN(c2cccc3c2OCCO3)CC1 | 1.4 nM |
| Fc1cc(Br)c(OCCCN2CCN(c3cccc4c3OCCO4)CC2)c(Br)c1 | 13 nM |
| Fc1ccc(SCCCN2CCN(c3cccc4ccsc34)CC2)c(Cl)c1 [Compound 5ai] | 2.9 nM |
| CC1(C)Cc2cc(Cl)cc(N3CCN(CCCOc4c(Cl)cc(F)cc4Cl)CC3)c2O1 | 11 nM |
| Fc1cc(F)c(OCCCN2CCN(c3cccc4c3OCCO4)CC2)c(Br)c1 | 2.4 nM |
| FC(F)(F)c1ccc(OCCCN2CCN(c3cccc4c3OCCO4)CC2)cc1 | 12 nM |
| N#Cc1cc(Br)c(OCCCN2CCN(c3cccc4c3OCCO4)CC2)c(Br)c1 | 19 nM |

----------
Target: cloned human 5-HT1A receptors (Homo sapiens, UniProt P08908)
Sequence (P08908 1-422): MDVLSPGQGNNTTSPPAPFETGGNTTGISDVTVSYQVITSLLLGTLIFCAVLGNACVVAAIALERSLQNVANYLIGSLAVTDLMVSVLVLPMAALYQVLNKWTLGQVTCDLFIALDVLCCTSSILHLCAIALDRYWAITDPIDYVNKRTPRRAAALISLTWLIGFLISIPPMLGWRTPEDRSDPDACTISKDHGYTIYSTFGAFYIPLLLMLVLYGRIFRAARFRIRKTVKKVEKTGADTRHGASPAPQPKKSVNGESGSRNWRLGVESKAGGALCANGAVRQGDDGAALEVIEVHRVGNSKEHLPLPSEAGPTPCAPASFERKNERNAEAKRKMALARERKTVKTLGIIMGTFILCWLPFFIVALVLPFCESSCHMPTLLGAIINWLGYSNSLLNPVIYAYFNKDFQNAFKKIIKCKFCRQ
Test: Inhibition of 3H-5-CT binding to human 5-HT1A receptors
Settings: cloned human 5-HT1A receptors in HeLa cells (HA7)
IC50 under 4 nM gets fulfilled, anything at or over 4 nM gets not fulfilled.

| smilesNotation | className |
| --- | --- |
| CC1(C)Cc2cc(Cl)cc(N3CCN(CCCOc4c(Cl)cc(S(C)(=O)=O)cc4Cl)CC3)c2O1 | fulfilled |
| Fc1cc(Br)cc(F)c1OCCCCN1CCN(c2cccc3ccsc23)CC1 | not fulfilled |
| Brc1cc(Br)c(OCCCN2CCN(c3cccc4c3OCCO4)CC2)c(Br)c1 | fulfilled |
| N#Cc1ccc(N2CCN(CCCOc3ccc(F)cc3Cl)CC2)c2c1OCCO2 | not fulfilled |
| CS(=O)(=O)c1cc(Cl)c(OCCCN2CCN(c3cccc4ccsc34)CC2)c(Cl)c1 | fulfilled |
| Clc1cccc(Cl)c1SCCCCN1CCN(c2cccc3c2OCCO3)CC1 | fulfilled |
| COc1c(Cl)cccc1SCCCCN1CCN(c2cccc3c2OCCO3)CC1 | not fulfilled |
| CC1(C)COc2c(N3CCN(CCCOc4c(Cl)cc(S(C)(=O)=O)cc4Cl)CC3)cc(Cl)cc21 | fulfilled |
| N#Cc1ccccc1OCCCN1CCN(c2cccc3c2OCCO3)CC1 | not fulfilled |
| CC1(C)COc2c(N3CCN(CCCOc4c(Cl)cc(F)cc4Cl)CC3)cc(Cl)cc21 | not fulfilled |
| Clc1ccccc1SCCCN1CCN(c2cccc3ccsc23)CC1 | not fulfilled |
| N#Cc1ccc(N2CCN(CCCOc3ccccc3Cl)CC2)c2c1OCCO2 | not fulfilled |
| Fc1cc(Br)c(OCCCN2CCN(c3cccc4c3OCCO4)CC2)c(Br)c1 | fulfilled |
| Fc1cc(Cl)c(OCCCCN2CCN(c3cccc4c3OCCO4)CC2)c(Cl)c1 | not fulfilled |
| Fc1cc(Cl)c(OCCCN2CCN(c3cccc4ccsc34)CC2)c(Cl)c1 | not fulfilled |
| Fc1ccc(SCCCN2CCN(c3cccc4c3OCCO4)CC2)c(Cl)c1 | fulfilled |
| COc1cc(F)ccc1OCCCN1CCN(c2cccc3c2OCCO3)CC1 | not fulfilled |
